Test system: THRa homodimer (NR concentration 90 nM)
assay.notes: PBM binding z-score (relative to random genomic background probes); higher = stronger binding; sequences stand for … in GC…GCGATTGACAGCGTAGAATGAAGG
value.type: PBM binding z-score
Quick one: just the number, no unit, thanks!

Example entries begin here.
> print(dat)
                          biosequence  value
1  GCGACTGGGGGATCAGCAGGTTACCATAACTTAA  0.806
2  CCAGACAGGAGAGAAGGTAACTCAGCCTCGATTA  0.357
3  GCAGACAGATGAAACGCAGGTAACTCAGGGTGGC  -1.03
4  CAAACTAGGTCAAAGGTCAAAGTCGAGCCAACCA   1.83
5  CCTAATGGGCCATTCAGAGGTCATTGATCATATG   1.19

We now examine a further sequence.
Ask: # PBM binding z-score lookup, item AGAATGAAGTTACCAAAGATCAGGGAAACGCTTG
Result: -1.02
